The reported numbers originate from patent US20210145976A1.

Below, each of the binders is paired with its reported hCD71 value.
biological target: T1, recombinant biotinylated CD71 extracellular domain (Sino Biologics) with an N-terminal 6His tag (human, UniProt P02786 89-760, biotinylated (sites not given)); assay: screening ELISA
T1 construct: extracellular domain; also called hCD71; huCD71
T1 sequence (P02786 other isoform, or with tags, fused parts or gaps): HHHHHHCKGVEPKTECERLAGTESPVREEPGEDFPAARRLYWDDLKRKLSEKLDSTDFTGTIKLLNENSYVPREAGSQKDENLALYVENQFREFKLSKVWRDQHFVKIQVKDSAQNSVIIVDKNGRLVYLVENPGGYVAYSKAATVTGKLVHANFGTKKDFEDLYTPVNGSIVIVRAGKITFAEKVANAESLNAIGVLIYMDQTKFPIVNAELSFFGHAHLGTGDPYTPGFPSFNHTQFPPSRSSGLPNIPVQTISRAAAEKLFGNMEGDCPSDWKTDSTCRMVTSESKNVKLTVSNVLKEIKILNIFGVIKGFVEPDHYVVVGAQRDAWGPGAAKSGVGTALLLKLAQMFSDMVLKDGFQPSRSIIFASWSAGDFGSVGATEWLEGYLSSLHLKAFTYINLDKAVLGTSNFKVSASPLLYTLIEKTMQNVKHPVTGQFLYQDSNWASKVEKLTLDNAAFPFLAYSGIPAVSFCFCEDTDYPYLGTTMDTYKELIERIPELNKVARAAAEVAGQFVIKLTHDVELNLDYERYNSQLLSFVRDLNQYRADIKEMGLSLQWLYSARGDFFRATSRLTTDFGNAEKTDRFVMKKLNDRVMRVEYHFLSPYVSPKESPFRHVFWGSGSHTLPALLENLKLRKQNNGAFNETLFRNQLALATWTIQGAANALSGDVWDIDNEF
quantity_kind: hCD71

INSERT INTO measurements (binder, quantity_kind, measurement) VALUES
  ('SEQ ID NO 54 (designed binder, FN3 domain) MLPAPKNLVVSRVTEDSARLSWTAPDAAFDSFQILYQENAFEGEAIVLTVPGSERSYDLTGLKPGTEYWVYIYGVKGGYPSVPLSAIFTT', 'hCD71', '6.99e+06'),
  ('SEQ ID NO 40 (designed binder, FN3 domain) MLPAPKNLVVSRVTEDSARLSWTAPDAAFDSFVIEYWEYVGHGEAIVLTVPGSERSYDLTGLKPGTEYSVGIYGVKGGSLSRPLSAIFTT', 'hCD71', 220000),
  ('SEQ ID NO 52 (designed binder, FN3 domain) MLPAPKNLVVSRVTEDSARLSWTAPDAAFDSFKISYQEWWEDGEAIVLTVPGSERSYDLTGLKPGTEYWVNISGVKGGVQSYPLSAIFTT', 'hCD71', '1.01e+07'),
  ('SEQ ID NO 44 (designed binder, FN3 domain) MLPAPKNLVVSRVTEDSARLSWTAPDAAFDSFYIEYYESLPDGEAIVLTVPGSERSYDLTGLKPGTEYAVYIYGVKGGYYSRPLSAIFTT', 'hCD71', 176000);
